Target: Caspase-2 (Homo sapiens)
Sequence (P42575 whole entry): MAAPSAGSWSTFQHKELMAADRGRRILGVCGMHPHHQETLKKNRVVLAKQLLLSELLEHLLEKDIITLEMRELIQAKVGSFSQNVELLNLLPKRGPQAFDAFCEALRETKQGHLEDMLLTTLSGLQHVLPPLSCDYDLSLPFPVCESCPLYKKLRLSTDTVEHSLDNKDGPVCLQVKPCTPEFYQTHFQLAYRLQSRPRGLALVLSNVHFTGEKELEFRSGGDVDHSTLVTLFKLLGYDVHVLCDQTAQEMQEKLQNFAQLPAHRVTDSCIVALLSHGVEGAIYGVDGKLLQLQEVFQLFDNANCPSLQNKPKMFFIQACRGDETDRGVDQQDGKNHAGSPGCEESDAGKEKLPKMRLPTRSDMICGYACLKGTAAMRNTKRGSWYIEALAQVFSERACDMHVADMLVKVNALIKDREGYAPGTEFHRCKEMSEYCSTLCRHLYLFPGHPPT
pIC50: −log10 of the molar value.
Value Kind: pIC50

pIC50 for "COc1ccc(NC(=O)C(=O)c2cn(CC(=O)N3CCCCC3)c3ccccc23)cc1OC" is < 4.00
